src = ChEMBL document CHEMBL1155544

# ASSAY INFO: Metabolic stability in human liver microsome assessed as compound remaining after 30 mins
# Format: ADME
# TEST SETTINGS: liver microsomes, read-out: Stability
REPORTED METRIC: remaining at 0.5 h (%)

| SMILES INPUT | DISPLAY UNIT | VALUE |
| --- | --- | --- |
| CN1C[C@@H]2C[C@H]1CN2c1ccc(-c2ccc3[nH]ccc3c2)nn1 | % | 97 |
